These measurements were taken from patent US11033539B2.

The following compounds are shown together with reported Ki values.
Target: human M1 receptor (Homo sapiens (Human))
Sequence (P11229 whole entry): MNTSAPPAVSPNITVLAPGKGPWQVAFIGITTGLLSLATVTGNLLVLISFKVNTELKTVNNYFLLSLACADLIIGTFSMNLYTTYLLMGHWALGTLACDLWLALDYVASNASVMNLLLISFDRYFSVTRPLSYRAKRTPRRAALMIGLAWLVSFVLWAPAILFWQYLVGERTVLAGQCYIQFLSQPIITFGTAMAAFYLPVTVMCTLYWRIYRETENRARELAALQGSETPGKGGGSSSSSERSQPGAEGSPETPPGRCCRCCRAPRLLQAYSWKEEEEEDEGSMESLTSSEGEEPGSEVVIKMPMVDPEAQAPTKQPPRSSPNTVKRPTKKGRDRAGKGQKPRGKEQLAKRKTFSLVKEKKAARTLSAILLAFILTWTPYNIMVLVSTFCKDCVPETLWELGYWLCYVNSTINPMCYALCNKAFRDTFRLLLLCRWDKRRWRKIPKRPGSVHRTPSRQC
Assay: Radioligand (tritiated N-methylscopolamine) binding assay, M1
Conditions: CHO cell membranes expressing human M1; 1.5 nM tritiated N-methylscopolamine; 90 min, 37° C.; read-out: Ki against M1 receptor (Table 21, M1)

C[C@@H]1CN(c2cc(C(F)(F)F)ccn2)CCN1C(=O)NCCC1CCN(Cc2ccccc2)CC1	0.1 to 1 µM

Prompt line: Would you kindly share the measured Ki for `C[C@@H]1CN(c2cc(F)c(F)c(Cl)c2)CCN1C(=O)NCCC1CCN(Cc2ccccc2)CC1` ?
Response line: 0.1 to 1 µM

Prompt line: Query `Cc1c(C(=O)NCCC2CCN(Cc3ccccc3)CC2)cnc2cc(-c3cc(F)c(F)c(F)c3)nn12` next
Response line: > 1 µM

Prompt line: Query `C[C@@H]1CN(c2ncc(Br)cn2)CCN1C(=O)NCCC1CCN(Cc2ccccc2)CC1` next
Response line: 0.01 to 0.1 µM

Prompt line: Query `N#Cc1cc(N2CCC(C(=O)NCCC3CCN(Cc4ccccc4)CC3)CC2)ccc1OC(F)(F)F` next
Response line: 0.1 to 1 µM

----------
The following compounds are shown together with reported pKi values.
Target: human M5 receptor (Homo sapiens (Human))
Sequence (P08912 whole entry): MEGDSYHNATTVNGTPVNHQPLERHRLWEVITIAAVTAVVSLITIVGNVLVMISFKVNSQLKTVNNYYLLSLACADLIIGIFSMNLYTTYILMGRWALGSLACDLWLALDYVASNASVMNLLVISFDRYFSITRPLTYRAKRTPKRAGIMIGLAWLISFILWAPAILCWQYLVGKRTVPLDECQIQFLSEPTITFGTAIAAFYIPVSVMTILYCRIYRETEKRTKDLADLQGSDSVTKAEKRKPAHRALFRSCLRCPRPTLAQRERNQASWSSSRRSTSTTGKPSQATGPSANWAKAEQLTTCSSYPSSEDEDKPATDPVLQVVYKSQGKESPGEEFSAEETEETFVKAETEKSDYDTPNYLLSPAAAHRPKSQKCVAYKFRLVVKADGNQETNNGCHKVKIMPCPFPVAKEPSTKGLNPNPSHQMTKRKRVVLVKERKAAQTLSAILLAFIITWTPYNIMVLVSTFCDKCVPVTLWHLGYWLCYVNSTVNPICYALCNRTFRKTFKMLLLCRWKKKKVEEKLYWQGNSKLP
Assay: Radioligand (tritiated N-methylscopolamine) binding assay, M5
Settings: CHO cell membranes expressing human M5; 1.5 nM tritiated N-methylscopolamine; 90 min, 37° C.; read-out: Ki against M5 receptor (Table 21, M5)
pKi: −log10 of the molar value.

The following compounds have reported results that may help.
C[C@@H]1CN(c2cc(F)c(F)c(F)c2)CCN1C(=O)NC[C@@H](O)C1CCN(Cc2ccccc2)CC1 [3-22]	< 6.00
C[C@@H]1CN(c2ncc(C#N)cn2)C[C@H](C)N1C(=O)NCCC1CCN(Cc2ccccc2)CC1 [21-2]	< 6.00
C[C@@H]1CN(c2cc(F)c(F)c(F)c2)CCN1C(=O)NCCC1(O)CCN(Cc2ccccc2)CC1 [7-1]	< 6.00
C[C@H]1CN(c2ccc(OC(F)(F)F)cc2)CCN1C(=O)NCCC1CCN(Cc2ccccc2)CC1 [4-10]	6.00 to 7.00
C[C@@H]1CN(c2ccc(F)c(C#N)c2)CCN1C(=O)NCCC1CCN(Cc2ccccc2)CC1 [4-1]	< 6.00
C[C@@H]1CN(c2ccc(OC(F)(F)F)c(C#N)c2)CCN1C(=O)NCCC1CCN(Cc2ccccc2)CC1 [3-1]	< 6.00
Cc1c(C(=O)NCCC2CCN(Cc3ccccc3)CC2)cnc2cc(-c3cccc(OC(F)(F)F)c3)nn12 [18-16]	< 6.00
C[C@@H]1CN(c2ncc(C(F)(F)F)cn2)CCN1C(=O)NCCC1CCN(Cc2ccc(F)cc2)CC1 [6-37]	< 6.00
CC1CN(c2cccc(OC(F)(F)F)c2)CCC1C(=O)NCCC1CCN(Cc2ccccc2)CC1 (stereo not shown) [10-18]	< 6.00
C[C@@H]1CN(c2ccc(OC(F)(F)F)nc2)CCN1C(=O)NCCC1CCN(Cc2ccccc2)CC1 [3-8]	< 6.00

Prompt line: Would you kindly share the measured pKi for C[C@@H]1CN(c2ccc(C#N)cc2F)C[C@H](C)N1C(=O)NCCC1CCN(Cc2ccccc2)CC1 [22-3] ?
Response line: < 6.00

Prompt line: Query C[C@@H]1CN(c2ncc(C(F)(F)F)c(N)n2)CCN1C(=O)NCCC1CCN(Cc2ccccc2)CC1 [5-29] next
Response line: < 6.00

----------
Molecular target: human M4 receptor (Homo sapiens (Human))
Assay: Radioligand (tritiated N-methylscopolamine) binding assay, M4
Settings: Ki against the M4 receptor; membranes from CHO cells expressing human M4; tritiated N-methylscopolamine 1.5 nM; read-out: Ki
The following compounds are shown together with reported Ki values.

Prompt line: Would you kindly share the measured Ki for `CC1(C(=O)NCCC2CCN(Cc3ccccc3)CC2)CCN(c2ccc(OC(F)(F)F)cc2)CC1` ?
Response line: 10 to 100 nM

Prompt line: Query `Cc1cncc(N2CCN(C(=O)NCCC3CCN(Cc4ccccc4)CC3)[C@H](C)C2)c1` next
Response line: 100 to 1000 nM

Prompt line: Query `CS(=O)(=O)c1cccc(N2CCC(C(=O)NCCC3CCN(Cc4ccccc4)CC3)CC2)c1` next
Response line: 100 to 1000 nM

Prompt line: Query `O=C(NCCC1CCN(Cc2ccccc2)CC1)c1ccc(-c2ccc(O)cc2)cc1` next
Response line: 100 to 1000 nM

Prompt line: Query CN(CCNC(=O)C1CCN(c2ccc(OC(F)(F)F)c(F)c2)CC1)C1CN(Cc2ccccc2)CC1CO (stereo not shown) next
Response line: 100 to 1000 nM

Prompt line: Query `C[C@@H]1CN(c2ccc(OC(F)(F)F)c(C#N)c2)CCN1C(=O)NCC[C@H]1CCN(Cc2ccccc2)C1` next
Response line: < 10 nM

----------
The following compounds are shown together with reported Ki values.
Target: UniProt:P08173
Experiment: Radioligand (tritiated N-methylscopolamine) binding assay, M4
Conditions: Ki against the M4 receptor; membranes from CHO cells expressing human M4; tritiated N-methylscopolamine 1.5 nM; read-out: Ki

C[C@@H]1CN(c2ncc(C#N)cn2)C[C@H](C)N1C(=O)NCCC1CCN(Cc2ccc(B(O)O)cc2)CC1 [6-63]	0.1 to 1 µM
C[C@@H]1CN(c2ccc(F)cn2)CCN1C(=O)NCCC1CCN(Cc2ccccc2)CC1 [4-46]	0.01 to 0.1 µM
N#Cc1cc(OC(F)(F)F)cc(N2CCC(C(=O)NCCC3CCN(Cc4ccccc4)CC3)CC2)c1 [10-23]	< 0.01 µM
COc1ccccc1C1(O)CCN(C(=O)NCCC2CCN(Cc3ccccc3)CC2)CC1 [8-42]	0.1 to 1 µM
C[C@@H]1CN(c2ccc(C#N)cc2)CCN1C(=O)NCCC1CCN(Cc2ccccc2)CC1 [4-25]	0.01 to 0.1 µM
Nc1nc(N2CCN(C(=O)NCCC3CCN(Cc4ccccc4)CC3)CC2)ncc1F [5-34]	0.1 to 1 µM
N#Cc1cc(Cl)ccc1N1CCN(C(=O)NCCC2CCN(Cc3ccccc3)CC2)CC1 [8-7]	0.1 to 1 µM
C[C@@H]1CN(c2ccc(C#N)cn2)C[C@H](C)N1C(=O)NCCC1CCN(Cc2ccccc2)CC1 [3-23]	< 0.01 µM
O=C(Cc1ccc(OCc2ccccc2)cc1)NCCC1CCN(Cc2ccccc2)CC1 [9-43]	0.1 to 1 µM
Cc1nc(N2CCN(C(=O)NCCC3CCN(Cc4ccccc4)CC3)[C@H](C)C2)ccc1F [4-19]	< 0.01 µM

Prompt line: Would you kindly share the measured Ki for C[C@@H]1CN(c2ncc(F)cn2)CCN1C(=O)NCCC1CCN(Cc2ccccc2)CC1 [4-41] ?
Response line: 0.01 to 0.1 µM

Prompt line: Query Cc1c(C(=O)NCCC2CCN(Cc3ccccc3)CC2)cnc2cc(-c3cccc(F)c3F)nn12 [18-7] next
Response line: 0.01 to 0.1 µM

Prompt line: Query Cc1c(C(=O)NCCC2CCN(Cc3ccccc3)CC2)cnc2cc(-c3ccc(C(F)(F)F)cc3)nn12 [17-8] next
Response line: 0.01 to 0.1 µM

Prompt line: Query C[C@@H]1CN(c2ncc(C#N)cn2)C[C@H](C)N1C(=O)NCCC1CCN(Cc2ccccc2)CC1 [21-15] next
Response line: < 0.01 µM

Prompt line: Query COc1nc(N2CCN(C(=O)NCCC3CCN(Cc4ccccc4)CC3)[C@H](C)C2)ncc1F [4-27] next
Response line: 0.01 to 0.1 µM

Prompt line: Query C[C@@H]1CN(c2cnc(C#N)cn2)C[C@H](C)N1C(=O)NCCC1CCN(Cc2ccccc2)CC1 [23-2] next
Response line: 0.01 to 0.1 µM

Prompt line: Query C[C@@H]1CN(c2cnc(C(F)(F)F)nc2)C[C@H](C)N1C(=O)NCCC1CCN(Cc2cccc(F)c2)CC1 [6-51] next
Response line: 0.01 to 0.1 µM

Prompt line: Query C[C@@H]1CN(c2ncc(C#N)cn2)C[C@@H](C)N1C(=O)NCCC1CCN(Cc2ccccc2)CC1 [26-2] next
Response line: < 0.01 µM

Prompt line: Query C[C@@H]1CN(c2cc(F)c(F)c(F)c2)CCN1C(=O)NC[C@@H](O)C1CCN(Cc2ccccc2)CC1 [3-22] next
Response line: < 0.01 µM

----------
Target: human M4 receptor (Homo sapiens (Human), UniProt P08173)
Sequence (P08173 whole entry): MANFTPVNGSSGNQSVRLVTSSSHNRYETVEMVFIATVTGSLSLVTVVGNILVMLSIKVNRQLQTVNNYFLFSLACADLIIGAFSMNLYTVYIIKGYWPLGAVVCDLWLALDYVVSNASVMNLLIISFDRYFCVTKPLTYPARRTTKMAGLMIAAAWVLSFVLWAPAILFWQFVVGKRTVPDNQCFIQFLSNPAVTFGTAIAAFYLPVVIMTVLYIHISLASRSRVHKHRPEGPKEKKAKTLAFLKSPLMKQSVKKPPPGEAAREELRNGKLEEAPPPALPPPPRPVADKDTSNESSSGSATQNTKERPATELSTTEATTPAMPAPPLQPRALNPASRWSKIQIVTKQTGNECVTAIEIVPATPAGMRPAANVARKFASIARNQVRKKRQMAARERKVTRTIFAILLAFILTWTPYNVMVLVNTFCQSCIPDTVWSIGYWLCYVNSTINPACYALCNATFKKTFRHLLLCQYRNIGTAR
Test: Radioligand (tritiated N-methylscopolamine) binding assay, M4
Conditions: Ki against the M4 receptor; membranes from CHO cells expressing human M4; tritiated N-methylscopolamine 1.5 nM; read-out: Ki
pKi: −log10 of the molar value.
The following compounds are shown together with reported pKi values.

Prompt line: # value lookup — system human M4 receptor (Homo sapiens (Human), UniProt P08173), readout pKi, item `C[C@@H]1CN(c2ncc(C#N)cn2)C[C@H](C)N1C(=O)NCCC1CCN(Cc2ccc(F)cc2)CC1`
Response line: > 8.00

Prompt line: Query `O=C(NCCC1CCN(Cc2ccccc2)CC1)C1CCN(c2ccc(OC(F)(F)F)cc2)CC1` next
Response line: > 8.00
